These entries and their values trace back to patent US20240409645A1.

Listed next: entries and their corresponding koff.
Molecular target: T1, mouse IL-2Rγ (mouse, UniProt P34902 23-263)
T1 construct: also called mo IL-2R
T1 sequence (looked up): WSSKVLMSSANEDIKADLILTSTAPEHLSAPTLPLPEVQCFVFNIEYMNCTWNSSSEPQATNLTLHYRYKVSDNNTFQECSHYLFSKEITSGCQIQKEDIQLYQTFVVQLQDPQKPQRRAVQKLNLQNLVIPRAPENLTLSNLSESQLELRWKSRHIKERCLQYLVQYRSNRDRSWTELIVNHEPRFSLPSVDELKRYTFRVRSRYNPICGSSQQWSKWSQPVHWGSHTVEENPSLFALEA
Experiment: SPR off-rate ranking, periplasmic extract on immobilised protein
// units = s⁻¹; emit number, no label

- binder: "FJ1427_P035MP04G02 (VHH, VHH in periplasmic extract; also called clone nr) VHH: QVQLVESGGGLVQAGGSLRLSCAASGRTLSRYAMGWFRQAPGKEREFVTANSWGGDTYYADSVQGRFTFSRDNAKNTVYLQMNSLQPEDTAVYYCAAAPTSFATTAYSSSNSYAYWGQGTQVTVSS"
  koff [s⁻¹]: 0.114

**Q:** Return koff (reported value) for this binder: FJ1427_P035MP04H05 (VHH, VHH in periplasmic extract; also called clone nr) VHH: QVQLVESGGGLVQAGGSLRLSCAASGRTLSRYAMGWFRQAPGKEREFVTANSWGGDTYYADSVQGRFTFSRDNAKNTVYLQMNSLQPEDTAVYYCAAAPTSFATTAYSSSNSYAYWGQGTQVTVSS
**A:** 0.108

**Q:** Input FJ1427_P035MP04B12 (VHH, VHH in periplasmic extract; also called clone nr) VHH: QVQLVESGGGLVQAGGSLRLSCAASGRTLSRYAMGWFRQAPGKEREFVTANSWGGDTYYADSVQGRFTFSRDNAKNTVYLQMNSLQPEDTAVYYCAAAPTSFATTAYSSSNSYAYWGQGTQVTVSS , output reported koff.
**A:** 0.116

**Q:** Give the reported koff for this binder. FJ1427_P035MP04F06 (VHH, VHH in periplasmic extract; also called clone nr) VHH: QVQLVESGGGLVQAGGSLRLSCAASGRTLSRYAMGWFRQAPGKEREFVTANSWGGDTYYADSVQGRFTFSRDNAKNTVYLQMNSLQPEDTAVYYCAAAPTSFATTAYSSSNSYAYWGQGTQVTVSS
**A:** 0.116
